Item-by-item account of OD
biological target: T1, human antithrombin (human, UniProt P01008 33-464); assay: ELISA, sdAb coated, plasma 1/4, bound antithrombin probed with polyclonal anti-antithrombin; grade by OD
T1 construct: Serpin; the description says that AT consists of 432 amino acids; also called purified human antithrombin; AT
T1 sequence (P01008 33-464 limits assumed): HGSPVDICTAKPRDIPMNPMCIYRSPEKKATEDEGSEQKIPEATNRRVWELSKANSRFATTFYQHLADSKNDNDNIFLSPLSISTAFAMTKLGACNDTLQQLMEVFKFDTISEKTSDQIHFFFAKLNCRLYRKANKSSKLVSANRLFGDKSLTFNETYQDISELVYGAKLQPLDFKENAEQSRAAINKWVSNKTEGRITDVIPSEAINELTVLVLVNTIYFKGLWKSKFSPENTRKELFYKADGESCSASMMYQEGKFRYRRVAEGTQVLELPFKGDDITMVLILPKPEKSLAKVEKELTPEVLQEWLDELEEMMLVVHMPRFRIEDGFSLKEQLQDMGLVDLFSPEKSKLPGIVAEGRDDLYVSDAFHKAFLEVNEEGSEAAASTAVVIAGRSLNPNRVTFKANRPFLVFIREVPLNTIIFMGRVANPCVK

binder	property-name	assay-result
KB-AT-002 (VHH, Monovalent anti-antithrombin single-domain antibody; also called sdAb KB-AT-002) VHH: QVQLVQSGGGLVQAGGSLRLSCAASGRTFNNNGMGWFRQAPGKEREFVAAISWSGGSTYYADSVKGRYIMSRDNAKNTVYLQMNSLKPEDTAVYYCAARTRYNSGLFSRNYDYWGQGTQVTVSS	OD	≥ 0.5 od
KB-AT-005 (VHH, Monovalent anti-antithrombin single-domain antibody; also called sdAb KB-AT-005) VHH: EVQLVESGGGLVQPGGSLRLSCEASGRDFNDAALGWSRQVPGKARETVAMITSGGVRNYAETVKDRFTISRDNAKNTVYLDMNNLQPDDTGVYYCKADSFKGDYDTSWYLYWGQGTQVTVSS	OD	0.1 to 0.5 od
KB-AT-001 (VHH, Monovalent anti-antithrombin single-domain antibody; also called sdAb KB-AT-001) VHH: QVQLQQSGGDLAQRGGSLRLSCAASGRTFRNYVMGWFRQAPGKDPEFIAGINRSGAITYYGDSVKGRFTISRDNAKNTVSLQMNSLEPEDTAVYYCAAGETTWSIRRDDYDYWGQGTQVTVSS	OD	0.1 to 0.5 od
KB-AT-004 (VHH, Monovalent anti-antithrombin single-domain antibody; also called sdAb KB-AT-004) VHH: VQLQQSGGGLVQPGGSLRLSCAASAMTFSIRAWAWYRQAPGKQRELVASIGTGDITNYADSVKGRFTISRDNAKNTFYLQMNSLKPEDTAVYYCNGYRSTYAWGQGTQVTVSS	OD	0.1 to 0.5 od

Kindly review the next binder as well.
Incoming: Returns the measured OD for the input binder. Input: KB-AT-006 (VHH, Monovalent anti-antithrombin single-domain antibody; also called sdAb KB-AT-006) VHH: QVQLQQSGGGLVQAGGSLRLSCAASGRTFSNNGMGWFRQAPGKEREFVAAISWSSGSTYYADSVKGRYTISRDNAKNTVYLQMNSLKPEDTAVYYCAARTRYNSGYFTRNYDYWGQGTQVTVSS
Outgoing: 0.1 to 0.5 od
